# Test system: 596521-263-R-J1-PDC complex spheroids, viability % of control
# testProtocol: Anticancer human tumor 596521-263-R-J1-PDC patient-derived soft tissue sarcoma cell line growth inhibition [GQUAD]
# experimentalParameters: second compound 0.0316 µM; first compound 0.000999 µM; stronger effect = lower value
experimentalReadout: viability, T/C (%)

compound	experimentalReadout	testResult
CCc1c2c(nc3ccc(O)cc13)-c1cc3c(c(=O)n1C2)COC(=O)[C@]3(O)CC + Cc1cnc(CNC(=O)c2c(=O)c3ccc(N4CCCN(C)CC4)nc3n3c2sc2ccccc23)cn1	viability, T/C	57.6
Cn1ncnc1[C@H]1c2n[nH]c(=O)c3cc(F)cc(c23)N[C@@H]1c1ccc(F)cc1 + Cc1[nH]c2ccc(F)cc2c1-c1nc2c3cccnc3c3ncccc3c2[nH]1	viability, T/C	89.4
Cc1[nH]c2ccccc2c1CCNCc1ccc(/C=C/C(=O)NO)cc1 + Cc1[nH]c2ccc(F)cc2c1-c1nc2c3cccnc3c3ncccc3c2[nH]1	viability, T/C	108
Cc1[nH]c2ccccc2c1CCNCc1ccc(/C=C/C(=O)NO)cc1 + CN(C)c1ccc(Nc2c3ccc(NC(=O)CCN4CCCC4)cc3nc3cc(NC(=O)CCN4CCCC4)ccc23)cc1	viability, T/C	102
Cc1[nH]c2ccccc2c1CCNCc1ccc(/C=C/C(=O)NO)cc1 + Cc1cnc(CNC(=O)c2c(=O)c3ccc(N4CCCN(C)CC4)nc3n3c2sc2ccccc23)cn1	viability, T/C	103
CC[C@@]1(O)C(=O)OCc2c1cc1n(c2=O)Cc2cc3c(CN(C)C)c(O)ccc3nc2-1 + Cc1[nH]c2ccc(F)cc2c1-c1nc2c3cccnc3c3ncccc3c2[nH]1	viability, T/C	98.3
CCc1c2c(nc3ccc(O)cc13)-c1cc3c(c(=O)n1C2)COC(=O)[C@]3(O)CC + CN(C)c1ccc(Nc2c3ccc(NC(=O)CCN4CCCC4)cc3nc3cc(NC(=O)CCN4CCCC4)ccc23)cc1	viability, T/C	66.2

* * *

Recorded pIC50 for the following compounds
# System: 596521-263-R-J1-PDC complex spheroids, viability % of control
# testProtocol: Anticancer human tumor 596521-263-R-J1-PDC cell line growth inhibition [GQUAD];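 also: spheroids exposed to drugs for 7 days before viability reading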
# experimentalParameters: curve of first compound; second compound 0.1 µM
pIC50: −log10 of the molar value.
experimentalReadout: pIC50

compound	testResult
Nc1ccn(C2OC(CO)C(O)C2(F)F)c(=O)n1 (stereo unspecified) + Cc1cnc(CNC(=O)c2c(=O)c3ccc(N4CCCN(C)CC4)nc3n3c2sc2ccccc23)cn1	6.51
Cn1ncnc1[C@H]1c2n[nH]c(=O)c3cc(F)cc(c23)N[C@@H]1c1ccc(F)cc1 + Cc1cnc(CNC(=O)c2c(=O)c3ccc(N4CCCN(C)CC4)nc3n3c2sc2ccccc23)cn1	< 6.50
CC(C)n1c(=O)n(C)c2cnc3cc(F)c(-c4ccc(OCCCN5CCCCC5)nc4)cc3c21 + Cc1[nH]c2ccc(F)cc2c1-c1nc2c3cccnc3c3ncccc3c2[nH]1	< 5.00
C=CCn1c(=O)c2cnc(Nc3ccc(N4CCN(C)CC4)cc3)nc2n1-c1cccc(C(C)(C)O)n1 + Cc1[nH]c2ccc(F)cc2c1-c1nc2c3cccnc3c3ncccc3c2[nH]1	5.27
O=c1[nH]cc(F)c(=O)[nH]1 + CN(C)c1ccc(Nc2c3ccc(NC(=O)CCN4CCCC4)cc3nc3cc(NC(=O)CCN4CCCC4)ccc23)cc1	< 5.00
Cn1ncnc1[C@H]1c2n[nH]c(=O)c3cc(F)cc(c23)N[C@@H]1c1ccc(F)cc1 + CN(C)c1ccc(Nc2c3ccc(NC(=O)CCN4CCCC4)cc3nc3cc(NC(=O)CCN4CCCC4)ccc23)cc1	< 6.50

* * *

# Test system: 596521-263-R-J1-PDC complex spheroids, viability % of control
# testProtocol: Anticancer human tumor 596521-263-R-J1-PDC cell line growth inhibition [GQUAD];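 also: spheroids exposed to drugs for 7 days before viability reading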
# experimentalParameters: curve of first compound; second compound 0.1 µM
Recorded IC50 by entry
experimentalReadout: IC50

molecule	testResult
COc1cccc2c1C(=O)c1c(O)c3c(c(O)c1C2=O)CC(O)(C(=O)CO)CC3OC1CC(N)C(O)C(C)O1 (stereo not given) + Cc1[nH]c2ccc(F)cc2c1-c1nc2c3cccnc3c3ncccc3c2[nH]1	655 nM
C=CC(=O)N1CCN(c2nc(=O)n(-c3c(C)ccnc3C(C)C)c3nc(-c4c(O)cccc4F)c(F)cc23)C(C)C1 (stereo not given) + Cc1cnc(CNC(=O)c2c(=O)c3ccc(N4CCCN(C)CC4)nc3n3c2sc2ccccc23)cn1	> 10000 nM
CC(=O)O[C@H]1C(=O)[C@@]2(C)[C@H]([C@H](OC(=O)c3ccccc3)[C@]3(O)C[C@H](OC(=O)[C@H](O)[C@@H](NC(=O)c4ccccc4)c4ccccc4)C(C)=C1C3(C)C)[C@]1(OC(C)=O)CO[C@@H]1C[C@@H]2O + Cc1cnc(CNC(=O)c2c(=O)c3ccc(N4CCCN(C)CC4)nc3n3c2sc2ccccc23)cn1	< 31.6 nM
CC(C)(O)C1CCC(Nc2ccc3ncc(-c4cccc(C(F)(F)F)c4)n3n2)CC1 (stereo not given) + CN(C)c1ccc(Nc2c3ccc(NC(=O)CCN4CCCC4)cc3nc3cc(NC(=O)CCN4CCCC4)ccc23)cc1	1370 nM
CCc1c2c(nc3ccc(O)cc13)-c1cc3c(c(=O)n1C2)COC(=O)[C@]3(O)CC + Cc1cnc(CNC(=O)c2c(=O)c3ccc(N4CCCN(C)CC4)nc3n3c2sc2ccccc23)cn1	8.15 nM
CCc1c2c(nc3ccc(O)cc13)-c1cc3c(c(=O)n1C2)COC(=O)[C@]3(O)CC + CN(C)c1ccc(Nc2c3ccc(NC(=O)CCN4CCCC4)cc3nc3cc(NC(=O)CCN4CCCC4)ccc23)cc1	4.06 nM
Cc1cccc(N(C)C(=O)C2C(O)CCN2c2nc(C)cc(C(F)(F)F)c2C#N)c1 (stereo not given) + CN(C)c1ccc(Nc2c3ccc(NC(=O)CCN4CCCC4)cc3nc3cc(NC(=O)CCN4CCCC4)ccc23)cc1	> 10000 nM
CC(C)(O)C1CCC(Nc2ccc3ncc(-c4cccc(C(F)(F)F)c4)n3n2)CC1 (stereo not given) + Cc1cnc(CNC(=O)c2c(=O)c3ccc(N4CCCN(C)CC4)nc3n3c2sc2ccccc23)cn1	1320 nM
CC(C)(O)C1CCC(Nc2ccc3ncc(-c4cccc(C(F)(F)F)c4)n3n2)CC1 (stereo not given) + Cc1[nH]c2ccc(F)cc2c1-c1nc2c3cccnc3c3ncccc3c2[nH]1	> 10000 nM
C#Cc1c(F)ccc2cc(O)cc(-c3ncc4c(N5CC6CCC(C5)N6)nc(OCC56CCCN5CC(F)C6)nc4c3F)c12 (stereo not given) + Cc1cnc(CNC(=O)c2c(=O)c3ccc(N4CCCN(C)CC4)nc3n3c2sc2ccccc23)cn1	> 10000 nM
CC1COCCN1c1cc(-c2ccnn2C)c2ccnc(-c3ccn[nH]3)c2n1 (stereo not given) + CN(C)c1ccc(Nc2c3ccc(NC(=O)CCN4CCCC4)cc3nc3cc(NC(=O)CCN4CCCC4)ccc23)cc1	301 nM
COc1cccc2c1C(=O)c1c(O)c3c(c(O)c1C2=O)CC(O)(C(=O)CO)CC3OC1CC(N)C(O)C(C)O1 (stereo not given) + Cc1cnc(CNC(=O)c2c(=O)c3ccc(N4CCCN(C)CC4)nc3n3c2sc2ccccc23)cn1	784 nM
Nc1ccn(C2OC(CO)C(O)C2(F)F)c(=O)n1 (stereo not given) + CN(C)c1ccc(Nc2c3ccc(NC(=O)CCN4CCCC4)cc3nc3cc(NC(=O)CCN4CCCC4)ccc23)cc1	< 31.6 nM
C=CC(=O)N1CCN(c2nc(=O)n(-c3c(C)ccnc3C(C)C)c3nc(-c4c(O)cccc4F)c(F)cc23)C(C)C1 (stereo not given) + CN(C)c1ccc(Nc2c3ccc(NC(=O)CCN4CCCC4)cc3nc3cc(NC(=O)CCN4CCCC4)ccc23)cc1	> 10000 nM
CCCS(=O)(=O)Nc1ccc(F)c(C(=O)c2c[nH]c3ncc(-c4ccc(Cl)cc4)cc23)c1F + Cc1cnc(CNC(=O)c2c(=O)c3ccc(N4CCCN(C)CC4)nc3n3c2sc2ccccc23)cn1	7340 nM
CC[C@@]1(O)C(=O)OCc2c1cc1n(c2=O)Cc2cc3c(CN(C)C)c(O)ccc3nc2-1 + CN(C)c1ccc(Nc2c3ccc(NC(=O)CCN4CCCC4)cc3nc3cc(NC(=O)CCN4CCCC4)ccc23)cc1	161 nM
COc1cc(C2c3cc4c(cc3C(OC3OC5COC(C)OC5C(O)C3O)C3COC(=O)C23)OCO4)cc(OC)c1O (stereo not given) + Cc1[nH]c2ccc(F)cc2c1-c1nc2c3cccnc3c3ncccc3c2[nH]1	> 10000 nM
COc1cccc2c1C(=O)c1c(O)c3c(c(O)c1C2=O)CC(O)(C(=O)CO)CC3OC1CC(N)C(O)C(C)O1 (stereo not given) + CN(C)c1ccc(Nc2c3ccc(NC(=O)CCN4CCCC4)cc3nc3cc(NC(=O)CCN4CCCC4)ccc23)cc1	910 nM
O=C(NO)c1cnc(N2CCN(S(=O)(=O)c3ccc4ccccc4c3)CC2)nc1 + Cc1[nH]c2ccc(F)cc2c1-c1nc2c3cccnc3c3ncccc3c2[nH]1	< 31.6 nM
CC(C)n1c(=O)n(C)c2cnc3cc(F)c(-c4ccc(OCCCN5CCCCC5)nc4)cc3c21 + CN(C)c1ccc(Nc2c3ccc(NC(=O)CCN4CCCC4)cc3nc3cc(NC(=O)CCN4CCCC4)ccc23)cc1	> 10000 nM
